Measured kcat, listed per entry.
B1: glmS ribozyme (parent)
chain: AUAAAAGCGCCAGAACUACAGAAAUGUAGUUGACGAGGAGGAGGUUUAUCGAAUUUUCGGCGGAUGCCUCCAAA

- Variants of: B1
- protocol_summary: kcat; higher = faster cleavage; RNA array
- condition_parameters: with glucosamine-6-phosphate
Variants at the floor of the assay were thinned out.
attribute_measured: kcat (s⁻¹)

variant_description="U49G C71U" attribute_measured=kcat comparative_sign== obs_value=0.00102
variant_description="A15C U65G" attribute_measured=kcat comparative_sign== obs_value=0.00172
variant_description="A48C G66A" attribute_measured=kcat comparative_sign== obs_value=0.000159
variant_description="A64U G66U" attribute_measured=kcat comparative_sign=< obs_value=1e-05
variant_description="C8G C10A" attribute_measured=kcat comparative_sign=< obs_value=1e-05
variant_description="G29U U65C" attribute_measured=kcat comparative_sign== obs_value=6.8e-05
variant_description="C11U U55A" attribute_measured=kcat comparative_sign== obs_value=0.00167
variant_description="A6U A53U" attribute_measured=kcat comparative_sign== obs_value=0.000209
variant_description="U30G G43U" attribute_measured=kcat comparative_sign== obs_value=1.16e-05
variant_description="C67A C70A" attribute_measured=kcat comparative_sign== obs_value=5e-05
variant_description="A42G G51A" attribute_measured=kcat comparative_sign=< obs_value=1e-05
variant_description="C16A G32C" attribute_measured=kcat comparative_sign== obs_value=9.38e-05
variant_description="G32A U69G" attribute_measured=kcat comparative_sign== obs_value=6.22e-05
variant_description="A12C A48C" attribute_measured=kcat comparative_sign== obs_value=0.000151
variant_description="G37A G59U C68G" attribute_measured=kcat comparative_sign=< obs_value=1e-05
variant_description="A36C U54A" attribute_measured=kcat comparative_sign=< obs_value=1e-05
variant_description="C11A A15G" attribute_measured=kcat comparative_sign== obs_value=0.000255
variant_description="A12U G66U" attribute_measured=kcat comparative_sign== obs_value=0.00516
variant_description="A52G U55G" attribute_measured=kcat comparative_sign== obs_value=0.00167
variant_description="U30G G66U" attribute_measured=kcat comparative_sign== obs_value=0.000295
variant_description="U45C U65A C67G" attribute_measured=kcat comparative_sign== obs_value=0.00116
variant_description="U45G C68G" attribute_measured=kcat comparative_sign== obs_value=0.000114
variant_description="U46G G59U" attribute_measured=kcat comparative_sign=< obs_value=1e-05
variant_description="A6C U30A" attribute_measured=kcat comparative_sign=< obs_value=1e-05
variant_description="G29A A39U A42U" attribute_measured=kcat comparative_sign== obs_value=0.000919
variant_description="U45C A48U" attribute_measured=kcat comparative_sign== obs_value=7.71e-05
variant_description="U31C G32U" attribute_measured=kcat comparative_sign== obs_value=0.000799
variant_description="A33G C67A" attribute_measured=kcat comparative_sign=< obs_value=1e-05
variant_description="U31A G44U" attribute_measured=kcat comparative_sign== obs_value=0.00017
variant_description="G9U A39U C61A" attribute_measured=kcat comparative_sign== obs_value=0.000456
variant_description="C34A G51U" attribute_measured=kcat comparative_sign== obs_value=0.000727
variant_description="G9A C67A" attribute_measured=kcat comparative_sign=< obs_value=1e-05
variant_description="U46G A48G" attribute_measured=kcat comparative_sign== obs_value=7.99e-05
variant_description="U56G G59C" attribute_measured=kcat comparative_sign=< obs_value=1e-05
variant_description="A39U G66C C67A" attribute_measured=kcat comparative_sign== obs_value=0.000462
variant_description="A39G A42U" attribute_measured=kcat comparative_sign== obs_value=0.000818
variant_description="A15U A33C" attribute_measured=kcat comparative_sign== obs_value=5.35e-05
variant_description="A12G C70A" attribute_measured=kcat comparative_sign== obs_value=0.000118
variant_description="G13C U56C" attribute_measured=kcat comparative_sign== obs_value=2.35e-05
variant_description="A15U G40C" attribute_measured=kcat comparative_sign== obs_value=0.000282
variant_description="G37C A39U" attribute_measured=kcat comparative_sign== obs_value=1.36e-05
variant_description="G29C C68G" attribute_measured=kcat comparative_sign== obs_value=2.94e-05
variant_description="G13U A15G" attribute_measured=kcat comparative_sign== obs_value=0.00265
variant_description="C50U C68A C71U" attribute_measured=kcat comparative_sign== obs_value=2.67e-05
variant_description="A6G U30G" attribute_measured=kcat comparative_sign== obs_value=0.000154
variant_description="U46C C50U" attribute_measured=kcat comparative_sign== obs_value=1.22e-05
